# measuredOn: human EHMT2 913-1193 (Homo sapiens, UniProt Q96KQ7)
# Construct: recombinant purified human EHMT2 913-1193, Viva; purchased Viva
# Sequence (Q96KQ7 913-1193): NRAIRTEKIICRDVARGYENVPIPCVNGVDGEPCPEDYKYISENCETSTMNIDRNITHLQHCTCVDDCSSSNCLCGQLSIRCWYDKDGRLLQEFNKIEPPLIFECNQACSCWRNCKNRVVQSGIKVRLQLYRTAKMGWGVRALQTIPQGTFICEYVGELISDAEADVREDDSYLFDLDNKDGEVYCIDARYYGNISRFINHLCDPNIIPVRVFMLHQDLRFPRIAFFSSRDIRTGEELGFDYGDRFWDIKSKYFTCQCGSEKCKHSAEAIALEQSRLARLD
# procedureDetails: EHMT2 enzyme assay on histone peptide substrate (EHMT2 PEP)
# Assay type: biochemical
# conditionDetails: Table III; read-out: EHMT2 PEP (IC50 μM)
# Method: Recombinant purified human EHMT2 913-1193 (55 μM) synthesized by Viva was used for all experiments. Biotinylated histone peptides were synthesized by Biopeptide and HPLC-purified to >95% purity. […] 384-well Flashplates and 96-well filter binding plates were read on a TopCount microplate reader (PerkinElmer). […]
measurementLabel: IC50

INSERT INTO assay_data (compound, observed) VALUES
  ('CNc1cc(C)nc(Nc2ccc(OC)c(O[C@H]3C[C@H](N(C)C)C3)c2)n1 (single isomer, unassigned) [Compound 329]', '1 to 10 µM'),
  ('COc1ccc(Nc2ccnc3[nH]ccc23)cc1OCCCN1CCCC1 [Compound 374]', '1 to 10 µM'),
  ('CNc1ccnc(Nc2ccc(OC)c(OCCCN3CCC3C)c2)n1 (stereo not drawn) [Compound 429]', '0.1 to 1 µM'),
  ('COc1cnc(Nc2ccnc3[nH]ccc23)cc1OCCCN1CCCC1 [Compound 335]', '0.1 to 1 µM'),
  ('CNc1ccnc(Nc2ccc(Cl)c(OCCCN3CCCC3)c2)n1 [Compound 398]', '0.1 to 1 µM'),
  ('CNc1cc(C#N)nc(Nc2ccc(OC)c(OCCCN3CCCC3)c2)n1 [Compound 384]', '> 10 µM'),
  ('CNc1cc(C)nc(Nc2ccc(OC)c(OCCCOC)c2)n1 [Compound 312]', '> 10 µM'),
  ('CNc1ccnc(Nc2ccc3c(c2)N(C(=O)CCN(C)C)CC3)n1 [Compound 363]', '> 10 µM'),
  ('CNc1ccnc(Nc2ccc(OC)c(OCC3CCN(C4CC4)C3)c2)n1 (stereo not drawn) [Compound 411]', '< 0.1 µM'),
  ('CCNC(=O)c1cc(Nc2nccc(NC)n2)ccn1 [Compound 291]', '> 10 µM'),
  ('CNc1cc(C)nc(Nc2ccc(OC)c(OCC3CCN(C)C3)c2)n1 (single isomer, unassigned) [Compound 418]', '< 0.1 µM'),
  ('COc1ccc(Nc2cc(C)nc(O)n2)cc1OCCCN1CCCC1 [Compound 448]', '> 10 µM'),
  ('COc1ccc(Nc2nccc(-n3nc(C)cc3C)n2)cc1OCCCN1CCCC1 [Compound 338]', '> 10 µM'),
  ('COc1ccc(Nc2nccc(Nc3cccc(F)c3)n2)cc1OCCCN1CCCC1 [Compound 349]', '1 to 10 µM'),
  ('COc1ccc(Nc2nc(C)c(F)c(NC(C)C)n2)cc1OCCCN1CCCC1 [Compound 337]', '1 to 10 µM'),
  ('CNc1ccnc(Nc2ccc(OC)c(OCCCN3CC(OC)C3)c2)n1 [Compound 425]', '0.1 to 1 µM'),
  ('CNc1ccnc(Nc2ccc(OC)c(OCCCN3CCC(C#N)C3)c2)n1 (stereo not drawn) [Compound 287]', '> 10 µM'),
  ('CNc1cc(C)nc(Nc2cc(OCCCN3CCCC3)c(OC)cn2)n1 [Compound 303]', '< 0.1 µM');
